# EXPERIMENTAL_TARGET: GluK1 kainate receptors (Tyr506Cys Leu768Cys) (Rattus norvegicus, UniProt P22756, L798C/Y536C)
# Sequence (P22756 31-949 Y536C/L798C): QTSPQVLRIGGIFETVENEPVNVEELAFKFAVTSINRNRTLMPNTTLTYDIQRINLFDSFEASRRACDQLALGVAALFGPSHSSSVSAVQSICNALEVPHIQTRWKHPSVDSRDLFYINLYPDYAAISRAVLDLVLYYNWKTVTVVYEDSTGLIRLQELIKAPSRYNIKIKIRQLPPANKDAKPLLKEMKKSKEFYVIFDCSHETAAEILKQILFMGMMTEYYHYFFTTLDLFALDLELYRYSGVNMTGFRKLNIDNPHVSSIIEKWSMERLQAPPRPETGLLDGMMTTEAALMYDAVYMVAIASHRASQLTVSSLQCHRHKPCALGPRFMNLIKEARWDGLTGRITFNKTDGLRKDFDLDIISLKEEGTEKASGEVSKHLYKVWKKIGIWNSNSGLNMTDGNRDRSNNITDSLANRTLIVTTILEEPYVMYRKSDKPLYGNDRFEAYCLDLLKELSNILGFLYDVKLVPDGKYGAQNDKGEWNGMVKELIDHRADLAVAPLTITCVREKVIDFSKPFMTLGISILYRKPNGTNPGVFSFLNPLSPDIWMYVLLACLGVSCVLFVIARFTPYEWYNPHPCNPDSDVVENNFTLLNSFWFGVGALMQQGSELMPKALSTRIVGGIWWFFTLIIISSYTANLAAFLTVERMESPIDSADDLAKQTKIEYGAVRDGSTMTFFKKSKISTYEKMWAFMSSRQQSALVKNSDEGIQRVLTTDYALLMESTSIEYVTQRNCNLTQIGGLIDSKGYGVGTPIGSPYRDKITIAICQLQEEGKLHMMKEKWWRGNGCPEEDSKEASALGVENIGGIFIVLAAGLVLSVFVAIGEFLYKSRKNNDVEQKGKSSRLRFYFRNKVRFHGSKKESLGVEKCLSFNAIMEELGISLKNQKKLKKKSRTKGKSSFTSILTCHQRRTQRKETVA
# ASSAY_SUMMARY: TEVC inhibition of L-glutamate induced currents, non-desensitizing GluK1 mutant
MEASURED_PROPERTY: Ki (nM)

- O=C(O)C1NCCN(C(=O)c2ccc3c(ccc4ccccc43)c2)C1C(=O)O (single isomer, unassigned; (-)) [(−)-PPDA]: 1170

====

# EXPERIMENTAL_TARGET: GluN1/GluN2A NMDA receptors (Rattus norvegicus, UniProt P35439+Q00959)
# Sequence (Q00959 20-1464 limits assumed, other chains not shown): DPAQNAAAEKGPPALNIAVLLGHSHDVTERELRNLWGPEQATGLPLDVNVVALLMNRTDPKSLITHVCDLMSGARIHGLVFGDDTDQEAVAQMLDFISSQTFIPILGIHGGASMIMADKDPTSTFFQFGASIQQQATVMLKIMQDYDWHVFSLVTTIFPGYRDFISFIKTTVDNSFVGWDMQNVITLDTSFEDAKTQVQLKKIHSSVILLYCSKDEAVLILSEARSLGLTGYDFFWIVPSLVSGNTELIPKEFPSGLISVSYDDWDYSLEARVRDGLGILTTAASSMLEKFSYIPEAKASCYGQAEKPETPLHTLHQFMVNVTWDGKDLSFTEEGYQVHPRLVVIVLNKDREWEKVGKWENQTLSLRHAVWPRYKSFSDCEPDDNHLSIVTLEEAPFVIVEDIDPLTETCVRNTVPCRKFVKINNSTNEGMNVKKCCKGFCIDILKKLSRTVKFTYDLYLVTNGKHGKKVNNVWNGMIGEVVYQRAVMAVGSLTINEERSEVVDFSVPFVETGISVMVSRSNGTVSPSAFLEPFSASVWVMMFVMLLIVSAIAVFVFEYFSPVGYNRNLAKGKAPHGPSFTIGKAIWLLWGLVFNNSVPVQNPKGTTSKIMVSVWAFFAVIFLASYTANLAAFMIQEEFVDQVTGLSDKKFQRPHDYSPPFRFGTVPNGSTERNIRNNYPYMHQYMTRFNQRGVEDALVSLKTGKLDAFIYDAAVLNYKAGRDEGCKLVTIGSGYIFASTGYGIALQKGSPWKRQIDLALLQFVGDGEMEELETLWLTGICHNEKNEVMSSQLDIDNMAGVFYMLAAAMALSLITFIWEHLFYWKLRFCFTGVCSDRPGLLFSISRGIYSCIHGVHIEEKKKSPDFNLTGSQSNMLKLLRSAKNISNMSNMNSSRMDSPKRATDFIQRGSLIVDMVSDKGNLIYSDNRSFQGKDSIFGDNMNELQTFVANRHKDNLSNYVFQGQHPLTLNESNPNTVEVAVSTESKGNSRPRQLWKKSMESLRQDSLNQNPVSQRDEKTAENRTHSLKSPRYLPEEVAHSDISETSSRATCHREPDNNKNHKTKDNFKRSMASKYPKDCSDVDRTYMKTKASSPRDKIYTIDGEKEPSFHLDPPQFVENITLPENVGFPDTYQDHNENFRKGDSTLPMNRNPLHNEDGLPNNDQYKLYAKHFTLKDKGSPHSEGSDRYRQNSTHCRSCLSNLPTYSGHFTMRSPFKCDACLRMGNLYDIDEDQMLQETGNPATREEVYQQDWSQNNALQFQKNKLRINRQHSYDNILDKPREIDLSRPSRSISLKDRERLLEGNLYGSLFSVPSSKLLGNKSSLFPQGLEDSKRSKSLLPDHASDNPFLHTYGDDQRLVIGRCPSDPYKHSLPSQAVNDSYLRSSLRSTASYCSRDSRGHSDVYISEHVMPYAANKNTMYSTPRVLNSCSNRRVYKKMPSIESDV
MEASURED_PROPERTY: Ki

* O=C(O)C1NCCN(C(=O)c2ccc3c(ccc4ccccc43)c2)C1C(=O)O (single isomer, unassigned; (-)) [(−)-PPDA] | 820 nM
